- assay.comment: chemical genetic growth profiling, strain panel (AID 1159580);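 also: tested at 20 µM; growth read once vehicle control cultures reached saturation at 30 °C; 1 = growth at the plate median or of vehicle wells; lower values mean less growth of the strain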
- condition.context: S. cerevisiae deletion strains, growth OD, locus YDL035C, strain GPR1, stronger effect = lower value
The campaign covered roughly 5,500 compounds. About 2,000 (36%) were called active. Roughly 18% stayed inconclusive and do not appear here. The list shows a part of the results.
parameter: normalized growth

# compound, test.result
measured = [
    ("CC(=O)O[C@@H]1CC2C(C)(C)CCC[C@]2(C)C2CC[C@]3(C)C(=CC(=O)O[C@H]3c3ccoc3)[C@@]21C (stereo partly specified)", 1.02),
    ("CC1(C)O[C@@H]2CC3C4C[C@H](F)C5=CC(=O)CC[C@]5(C)C4[C@@H](O)C[C@]3(C)[C@]2(C(=O)CO)O1 (stereo partly specified)", 1.01),
    ("C[C@H]1[C@H](C)CC[C@]2(C(=O)O)CC[C@]3(C)C(=CCC4[C@@]5(C)C[C@@H](O)[C@H](O)[C@@](C)(CO)C5[C@H](O)C[C@]43C)[C@H]12 (stereo partly specified)", 0.972),
    ("C/C=C/CC(C)C(O)C1C(=O)NC(CC)C(=O)N(C)CC(=O)N(C)C(CC(C)C)C(=O)NC(C(C)C)C(=O)N(C)C(CC(C)C)C(=O)NC(C)C(=O)NC(C)C(=O)N(C)C(CC(C)C)C(=O)N(C)C(CC(C)C)C(=O)N(C)C(C(C)C)C(=O)N1C (stereo unspecified)", 0.979),
    ("CC1(C)S[C@@H]2C(N3C(=O)[C@@H](c4ccccc4)NC3(C)C)C(=O)N2[C@H]1C(=O)O (stereo partly specified)", 1),
    ("CCOC(=O)CC(SP(=S)(OC)OC)C(=O)OCC (stereo unspecified)", 1.02),
]

###

- assay.comment: chemical genetic growth profiling, strain panel (AID 1159580)
- condition.context: S. cerevisiae deletion strains, growth OD, locus YKL009W, strain mrt4
Screen size: about 5,500 compounds; about 2,000 (36%) were called active. About 18% were inconclusive and are not listed. Rule as the data show it: active = normalized growth mostly below about 0.91 (no sharp cut-off); inconclusive = no clear call, values can overlap the other calls; inactive = mostly above about 0.92. This is one part of the list.
Outcome codes: YES = active, NO = inactive

# molecule, assigned.label
rows = [
    ("CC(C)(C)NCC(O)COc1cccc2c1C[C@H](O)[C@H](O)C2 (stereo not given in full)", "NO"),
    ("CC[C@H]1CN2CCC1C[C@@H]2[C@@H](O)c1ccnc2ccc(OC)cc12 (stereo not given in full)", "NO"),
    ("C[N+]1(C)C[C@H](O)[C@H](C(=O)[O-])C1", "NO"),
    ("C[C@H]1[C@H](C)CC[C@]2(C(=O)O)CC[C@]3(C)C(=CCC4[C@@]5(C)C[C@@H](O)[C@H](O)[C@@](C)(CO)C5[C@H](O)C[C@]43C)[C@H]12 (stereo not given in full)", "YES"),
    ("COC(=O)CC1C(C)(C)C(OC(C)=O)[C@@H]2[C@@H](OC(C)=O)[C@]34O[C@@]2(O)[C@]1(C)C3CC[C@]1(C)C4=CC(=O)O[C@H]1c1ccoc1 (stereo not given in full)", "NO"),
    ("CC(=O)N1CCCC1C(=O)O (stereo not given)", "NO"),
    ("CC1CCCC(C)N1NC(=O)c1ccc(Cl)c(S(N)(=O)=O)c1 (stereo not given)", "NO"),
    ("CSCCC(N)C(=O)NC(CC(C)C)C(=O)NC(Cc1ccccc1)C(=O)O (stereo not given)", "NO"),
    ("CNC[C@H](O)c1cccc(O)c1", "NO"),
    ("CCOC(=O)CC(SP(=S)(OC)OC)C(=O)OCC (stereo not given)", "NO"),
    ("CO[C@H]1[C@H](O)[C@@H](O[C@H]2CC[C@]3(C=O)C4CC[C@]5(C)[C@@H](C6=CC(=O)OC6)CC[C@]5(O)C4CC[C@@H]3C2)O[C@@H](C)[C@@H]1O (stereo not given in full)", "NO"),
    ("C[C@@H]1CCC2[C@](C)(CO)[C@@H](O)CC[C@]2(C)[C@@]12CC[C@@](CO)(CCO)O2 (stereo not given in full)", "NO"),
    ("C[C@@H]1O[C@@H](O[C@H]2CC[C@]3(C=O)C4CC[C@]5(C)[C@@H](C6=CC(=O)OC6)CC[C@]5(O)C4CC[C@]3(O)C2)[C@H](O)[C@H](O)[C@H]1O (stereo not given in full)", "NO"),
    ("COc1c(O)cc2c(c1O)[C@H]1O[C@H](CO)[C@@H](O)[C@H](O)[C@@H]1OC2=O", "NO"),
    ("Cc1ccccc1N1C(=O)c2cc(S(N)(=O)=O)c(Cl)cc2NC1C (stereo not given)", "NO"),
]

###

- assay.comment: chemical genetic growth profiling, strain panel (AID 1159580);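 also: tested at 20 µM; growth read once vehicle control cultures reached saturation at 30 °C; 1 = growth at the plate median or of vehicle wells; lower values mean less growth of the strain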
- condition.context: S. cerevisiae deletion strains, growth OD, locus YNL209W, strain ssb2, stronger effect = lower value
Out of some 5,500 compounds screened, about 2,000 (36%) were called active. Another 18% or so got no clear call; they are omitted. The list shows a part of the results.
In plain terms, low normalized growth, meaning strictly below 1, gives Met, and everything else gives Not met.

# molecule, assigned.label
rows = [
    ("CC(C)=CC1C(CO)C1(C)C (stereo not given)", "Not met"),
    ("CC1(C)Oc2ccc3ccc(=O)oc3c2CC1O (stereo not given)", "Met"),
]

###

- assay.comment: chemical genetic growth profiling, strain panel (AID 1159580);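 also: tested at 20 µM; growth read once vehicle control cultures reached saturation at 30 °C; 1 = growth at the plate median or of vehicle wells; lower values mean less growth of the strain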
- condition.context: S. cerevisiae deletion strains, growth OD, locus YMR231W, strain pep5, stronger effect = lower value
Among all 5,500 compounds or so, about 2,000 (36%) were called active. Roughly 18% stayed inconclusive and do not appear here. Some of the results follow.

# molecule, normalized growth
rows = [
    ("CC1(C)Oc2ccc3ccc(=O)oc3c2CC1O (configuration not stated)", 0.977),
    ("CN[C@H]1CC[C@@H](c2ccc(Cl)c(Cl)c2)c2ccccc21", 0.0786),
    ("CC(=O)O[C@@H]1c2c(ccc3ccc(=O)oc23)OC(C)(C)[C@@H]1OC(=O)CC(C)C", 1),
    ("CC(C)(C)NCC(O)COc1cccc2c1C[C@H](O)[C@H](O)C2 (some centres not stated)", 0.998),
    ("COC(=O)NC(=S)Nc1ccccc1NC(=S)NC(=O)OC", 0.993),
    ("CC(C)c1cccc(O)c(=O)c1", 0.0803),
    ("COC1=CC(C)[C@@H]2C[C@H]3OC(=O)C[C@H]4C(C)=C(OC)C(=O)C([C@@]34C)[C@@]2(C)C1=O (some centres not stated)", 0.973),
    ("CC(C)Nc1nc(Cl)nc(NC(C)C)n1", 0.999),
    ("CCCc1nn(C)c2c(=O)[nH]c(-c3cc(S(=O)(=O)N4CCN(C)CC4)ccc3OCC)nc12", 0.988),
    ("COc1nc(NC(C)C)nc(NC(C)C)n1", 1.02),
    ("CC(C)=CC1C(CO)C1(C)C (configuration not stated)", 1.02),
    ("CC1(C)O[C@@H]2CC3C4C[C@H](F)C5=CC(=O)CC[C@]5(C)C4[C@@H](O)C[C@]3(C)[C@]2(C(=O)CO)O1 (some centres not stated)", 1),
    ("CCC(=O)O[C@]1(C(=O)CCl)[C@@H](C)CC2C3CCC4=CC(=O)C=C[C@]4(C)[C@@]3(F)[C@@H](O)C[C@@]21C (some centres not stated)", 1.02),
    ("CC1(C)S[C@@H]2C(N3C(=O)[C@@H](c4ccccc4)NC3(C)C)C(=O)N2[C@H]1C(=O)O (some centres not stated)", 1.02),
    ("CC1=CC(=O)C(C(C)C)=CC1=O", 1.01),
    ("CC1(C)[C@@H]2CC[C@@]1(C)C(=O)C2", 1.01),
    ("O=C(O)C1=CC(=C(c2ccc(O)c(C(=O)O)c2)c2ccc(O)c(C(=O)O)c2)C=CC1=O", 0.946),
]

###

- assay.comment: chemical genetic growth profiling, strain panel (AID 1159580);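 also: tested at 20 µM; growth read once vehicle control cultures reached saturation at 30 °C; 1 = growth at the plate median or of vehicle wells; lower values mean less growth of the strain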
- condition.context: S. cerevisiae deletion strains, growth OD, locus YJL166W, strain qcr8, stronger effect = lower value
Screen size: about 5,500 compounds; about 2,000 (36%) were called active. Another 18% or so got no clear call; they are omitted. The list shows a part of the results.

# compound, normalized growth
data = [
    ("C[N+]1(C)C[C@H](O)[C@H](C(=O)[O-])C1", 1.01),
    ("CC12CCC(=O)C=C1CCc1ccccc12 (stereo unspecified)", 0.977),
    ("O=C(CCCN1CCC2(CC1)C(=O)NCN2c1ccccc1)c1ccc(F)cc1", 0.99),
    ("Nc1nc(/C(=C/CC(=O)O)C(=O)N[C@@H]2C(=O)N3C(C(=O)O)=CCS[C@H]23)cs1", 1.02),
    ("C=CCSCC=C", 0.977),
    ("COc1ccc(-c2cc(=O)c3c(OC)c(OC)c(OC)c(OC)c3o2)cc1OC", 0.998),
    ("COc1ccc(-c2cc(=O)c3c(O)c(OC)c(OC)c(OC)c3o2)cc1OC", 0.974),
    ("CC1(C)S[C@@H]2C(N3C(=O)[C@@H](c4ccccc4)NC3(C)C)C(=O)N2[C@H]1C(=O)O (stereo partly specified)", 1.02),
    ("NCCCC(O)(P(=O)(O)O)P(=O)(O)O", 1),
    ("N#Cc1c(Cl)cccc1Cl", 0.978),
    ("O=c1c(-c2ccc(O)cc2)coc2c(C3O[C@H](CO)[C@@H](O)[C@H](O)[C@H]3O)c(O)ccc12 (stereo partly specified)", 0.98),
    ("CC(=O)OCC(=O)[C@@]1(O)CCC2C3C[C@H](C)C4=CC(=O)C=CC4(C)C3[C@@H](O)CC21C (stereo partly specified)", 1.01),
    ("Cc1ncc(CO)c(CO)c1O", 1.02),
    ("COc1cc(O)c2c(=O)cc(-c3ccc(OC)c(-c4c(O)cc(O)c5c(=O)cc(-c6ccc(O)cc6)oc45)c3)oc2c1", 1.01),
    ("C=CCSSSCC=C", 0.976),
    ("COC(=O)NC(=S)Nc1ccccc1NC(=S)NC(=O)OC", 0.979),
    ("CC1(C)O[C@@H]2CC3C4C[C@H](F)C5=CC(=O)CC[C@]5(C)C4[C@@H](O)C[C@]3(C)[C@]2(C(=O)CO)O1 (stereo partly specified)", 1.01),
    ("COc1ccc(-c2cc(=O)c3c(O)c(OC)c(O[C@H]4O[C@H](CO[C@@H]5O[C@@H](C)[C@H](O)[C@@H](O)[C@H]5O)[C@@H](O)[C@H](O)[C@H]4O)cc3o2)cc1", 1),
    ("COc1ccc(-c2cc(=O)c3c(O)cc(O)cc3o2)cc1", 0.965),
    ("CSc1nc(NC(C)C)nc(NC(C)C)n1", 0.978),
    ("CO[C@H]1[C@@H](O)[C@@H](C)O[C@H](O[C@H]2CCC3(C)C4CCC5(C)[C@@H](C6=CC(=O)OC6)CC[C@]5(O)[C@@H]4CC[C@]3(O)C2)[C@@H]1O (stereo partly specified)", 1.03),
    ("CC[C@@]1(O)C(=O)OCc2c1cc1n(c2=O)Cc2cc3cc(O)ccc3nc2-1", 0.99),
    ("COc1cc(C(=O)N2CCOCC2)cc(OC)c1OC", 1.02),
    ("CC(C)(C)NCC(O)COc1cccc2c1C[C@H](O)[C@H](O)C2 (stereo partly specified)", 1),
    ("O=C(O)c1ccccc1O", 0.994),
    ("COP(N)(=O)SC (stereo unspecified)", 1.01),
    ("CC1(C)C(O)CC(=O)C2(C)C1CC(O)C1(C)C2CCC2(C)C(c3ccoc3)OC(=O)C3OC321 (stereo unspecified)", 0.994),
    ("CN[C@H]1CC[C@@H](c2ccc(Cl)c(Cl)c2)c2ccccc21", 0.862),
    ("COC1CC(O[C@H]2CC[C@]3(C=O)C4CC[C@]5(C)C(C6=CC(=O)OC6)CC[C@]5(O)C4CC[C@]3(O)C2)OC(C)C1O (stereo partly specified)", 0.996),
    ("O=C(CCCN1CCN(c2ccccn2)CC1)c1ccc(F)cc1", 0.949),
    ("COc1cccc2c1CCC1=CC(=O)CC[C@@]12C", 0.987),
    ("COc1cc(-c2cc(=O)c3c(O)c(OC)c(OC)c(OC)c3o2)cc(OC)c1OC", 1.01),
    ("NCCCN", 0.989),
    ("C[C@H]1[C@H](C)CC[C@]2(C(=O)O)CC[C@]3(C)C(=CCC4[C@@]5(C)C[C@@H](O)[C@H](O)[C@@](C)(CO)C5CC[C@]43C)[C@H]12 (stereo partly specified)", 0.996),
    ("COC1=CC(C)[C@@H]2C[C@H]3OC(=O)C[C@H]4C(C)=C(OC)C(=O)C([C@@]34C)[C@@]2(C)C1=O (stereo partly specified)", 0.987),
    ("CC(C)(C)NCC(O)COc1cccc2c1CCCC2=O (stereo unspecified)", 0.976),
]
